Target: 12-lipoxygenase (Rattus norvegicus, UniProt F1LQ70)
Construct: The platelets were then sonicated at 4° C. and centrifuged at 100,000×g for 30 minutes to obtain a supernatant as a 12-lipoxygenase enzyme solution; from tissue; host or cells: Sprague Dawley rat platelets (from aortic blood), sonicated, 100,000 x g supernatant
Sequence (F1LQ70 1-663): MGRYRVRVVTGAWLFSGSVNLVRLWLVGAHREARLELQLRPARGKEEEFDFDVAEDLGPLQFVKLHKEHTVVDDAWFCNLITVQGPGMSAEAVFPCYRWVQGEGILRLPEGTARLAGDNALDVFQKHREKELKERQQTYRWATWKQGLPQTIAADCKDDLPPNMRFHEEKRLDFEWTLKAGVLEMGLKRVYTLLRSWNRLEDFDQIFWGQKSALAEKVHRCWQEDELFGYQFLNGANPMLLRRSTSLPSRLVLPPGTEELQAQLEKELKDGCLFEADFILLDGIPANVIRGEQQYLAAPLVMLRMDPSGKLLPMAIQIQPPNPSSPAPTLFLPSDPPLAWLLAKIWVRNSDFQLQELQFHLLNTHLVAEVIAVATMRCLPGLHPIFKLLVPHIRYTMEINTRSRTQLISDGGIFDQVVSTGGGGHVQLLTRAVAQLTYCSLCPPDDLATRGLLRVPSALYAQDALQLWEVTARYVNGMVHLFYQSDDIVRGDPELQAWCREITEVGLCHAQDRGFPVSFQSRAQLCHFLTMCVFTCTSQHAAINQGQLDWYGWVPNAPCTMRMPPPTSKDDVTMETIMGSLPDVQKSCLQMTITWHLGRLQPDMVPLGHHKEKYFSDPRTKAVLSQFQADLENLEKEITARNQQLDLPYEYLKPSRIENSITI
Assay: 12-lipoxygenase inhibition assay (rat platelet supernatant, arachidonic acid, HPLC of 12-HETE)
Assay type: biochemical, Sprague Dawley male rat (platelets)
Conditions: Test Example 3, Table 11; value belongs to the deacylated compound; read-out: 12-lipoxygenase inhibiting activities of deacylated compounds (IC50 values)
Experimental: A Sprague Dawley male rat was anesthetized with ether and bled from abdominal aorta using a syringe filled with about one-tenth volume of 3.8% sodium citrate. Blood was centrifuged at 180×g for 15 minutes at room temperature to pellet sanguineous platelet blood plasma. The resultant supernatant was again centrifuged at 1800×g for 10 minutes at 4° C. […] They were measured in the same method as in Test Example 1.
recorded.metric: IC50 (nM)
Give just the numeric value; nM need not be written.

# example entries with known answers
Cc1c(-c2ccc(Cl)cc2)c(=O)oc2cc(O)c(O)cc12
9.2
O=c1oc2cc(O)c(O)cc2cc1-c1ccc(Cl)cc1 [Example 8, 3-(4-chlorophenyl)-6,7-dihydroxycoumarin]
7
O=c1oc2cc(O)c(O)cc2cc1-c1cccc(Cl)c1 [Example 9, 3-(3-chlorophenyl)-6,7-dihydroxycoumarin]
4.3
O=c1oc2cc(O)c(O)cc2cc1-c1ccc(I)cc1 [Example 10, 3-(4-iodophenyl)-6,7-dihydroxycoumarin]
5.8
O=c1oc2c(O)c(O)ccc2cc1-c1ccc(Cl)cc1 [Example 4, 3-(4-chlorophenyl)-7,8-dihydroxycoumarin]
7.6

Please tell me: IC50 of O=c1oc2c(O)c(O)ccc2cc1-c1cccc(Cl)c1 [Example 22, 3-(3-chlorophenyl)-7,8-dihydroxycoumarin] , system 12-lipoxygenase (Rattus norvegicus, UniProt F1LQ70)?
9.6

Now this one: O=c1oc2cc(O)c(O)cc2cc1-c1cc(Br)cs1
5.2
